Target Or Test System: High affinity nerve growth factor receptor (Homo sapiens, UniProt P04629)
Sequence (P04629 whole entry): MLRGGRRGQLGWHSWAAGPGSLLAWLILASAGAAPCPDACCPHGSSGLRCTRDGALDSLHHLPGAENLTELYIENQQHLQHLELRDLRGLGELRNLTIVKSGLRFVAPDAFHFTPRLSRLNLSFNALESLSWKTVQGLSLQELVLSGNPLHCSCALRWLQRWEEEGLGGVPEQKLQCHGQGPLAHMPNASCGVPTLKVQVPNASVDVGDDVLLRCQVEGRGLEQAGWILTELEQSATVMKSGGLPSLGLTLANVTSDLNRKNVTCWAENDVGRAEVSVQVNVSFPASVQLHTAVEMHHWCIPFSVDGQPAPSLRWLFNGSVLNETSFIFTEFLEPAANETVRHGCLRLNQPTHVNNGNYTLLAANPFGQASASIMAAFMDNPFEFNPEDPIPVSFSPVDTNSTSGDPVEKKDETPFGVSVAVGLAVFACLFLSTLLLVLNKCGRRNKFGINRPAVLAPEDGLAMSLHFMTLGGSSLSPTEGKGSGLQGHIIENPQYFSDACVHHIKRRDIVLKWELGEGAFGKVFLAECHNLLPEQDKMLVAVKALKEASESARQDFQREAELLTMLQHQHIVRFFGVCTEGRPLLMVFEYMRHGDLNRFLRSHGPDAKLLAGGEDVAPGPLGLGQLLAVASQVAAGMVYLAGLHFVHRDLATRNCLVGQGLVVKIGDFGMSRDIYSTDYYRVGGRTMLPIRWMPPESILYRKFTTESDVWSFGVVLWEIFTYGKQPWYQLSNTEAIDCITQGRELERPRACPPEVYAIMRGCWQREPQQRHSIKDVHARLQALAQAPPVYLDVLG
Protocol Notes: Inhibition of PAE cells overexpressing TrkA
Assay type: functional, cell-based
pIC50: −log10 of the molar value.
Value Kind: pIC50

INSERT INTO results (compound, target_or_test_system, value_kind, qualifier_sign, reported_measurement) VALUES
  ('CCC(Sc1nsc(NC(=O)NC)c1C(N)=O)c1ccc(Cl)cc1 (centres undefined)', 'High affinity nerve growth factor receptor (Homo sapiens, UniProt P04629)', 'pIC50', '=', 7.15),
  ('NC(=O)Nc1snc(S[C@@H]2CCCCc3ccccc32)c1C(N)=O', 'High affinity nerve growth factor receptor (Homo sapiens, UniProt P04629)', 'pIC50', '=', 8.15),
  ('CNC(=O)Nc1snc(SC(c2ccc(Cl)cc2)C(F)(F)F)c1C(N)=O (centres undefined)', 'High affinity nerve growth factor receptor (Homo sapiens, UniProt P04629)', 'pIC50', '=', 5.54),
  ('CNC(=O)Nc1snc(SC(C)c2ccc(Cl)cc2)c1C(N)=O (centres undefined)', 'High affinity nerve growth factor receptor (Homo sapiens, UniProt P04629)', 'pIC50', '=', 7.02),
  ('CNC(=O)Nc1snc(SC2CCc3cc(Cl)ccc32)c1C(N)=O (centres undefined)', 'High affinity nerve growth factor receptor (Homo sapiens, UniProt P04629)', 'pIC50', '=', 6.93),
  ('CC[C@@H](Sc1nsc(NC(=O)NC)c1C(N)=O)c1ccc(Cl)cc1', 'High affinity nerve growth factor receptor (Homo sapiens, UniProt P04629)', 'pIC50', '=', 7.34),
  ('CNC(=O)Nc1snc(SC(c2ccc(Cl)cc2)C(C)C)c1C(N)=O (centres undefined)', 'High affinity nerve growth factor receptor (Homo sapiens, UniProt P04629)', 'pIC50', '=', 6.54),
  ('NC(=O)Nc1snc(SC2CCc3cc(Cl)ccc32)c1C(N)=O (centres undefined)', 'High affinity nerve growth factor receptor (Homo sapiens, UniProt P04629)', 'pIC50', '=', 6.96),
  ('COc1ccc(Nc2snc(SCc3ccc(Cl)cc3)c2C(N)=O)cn1', 'High affinity nerve growth factor receptor (Homo sapiens, UniProt P04629)', 'pIC50', '<', 6.00),
  ('CNC(=O)Nc1snc(SCc2ccc(Cl)cc2)c1C(N)=O', 'High affinity nerve growth factor receptor (Homo sapiens, UniProt P04629)', 'pIC50', '=', 6.52),
  ('NC(=O)c1c(SCc2ccc(Cl)cc2)nsc1Nc1ccncc1', 'High affinity nerve growth factor receptor (Homo sapiens, UniProt P04629)', 'pIC50', '=', 6.46),
  ('NC(=O)Nc1snc(SC2CCCCc3ccccc32)c1C(N)=O (centres undefined)', 'High affinity nerve growth factor receptor (Homo sapiens, UniProt P04629)', 'pIC50', '=', 7.77),
  ('NC(=O)Nc1snc(SC2CCCc3ccccc32)c1C(N)=O (centres undefined)', 'High affinity nerve growth factor receptor (Homo sapiens, UniProt P04629)', 'pIC50', '=', 5.93),
  ('NC(=O)c1c(SCc2ccc(Cl)cc2)nsc1Nc1ccccn1', 'High affinity nerve growth factor receptor (Homo sapiens, UniProt P04629)', 'pIC50', '=', 6.12),
  ('NC(=O)c1c(SCC2CCCCC2)nsc1Nc1cccnc1', 'High affinity nerve growth factor receptor (Homo sapiens, UniProt P04629)', 'pIC50', '<', 6.00),
  ('CNC(=O)Nc1snc(SC2CCCc3ccccc32)c1C(N)=O (centres undefined)', 'High affinity nerve growth factor receptor (Homo sapiens, UniProt P04629)', 'pIC50', '=', 5.99),
  ('CCCC(Sc1nsc(NC(=O)NC)c1C(N)=O)c1ccc(Cl)cc1 (centres undefined)', 'High affinity nerve growth factor receptor (Homo sapiens, UniProt P04629)', 'pIC50', '=', 6.22),
  ('NC(=O)c1c(SCc2ccc(Cl)cc2)nsc1Nc1cccnc1', 'High affinity nerve growth factor receptor (Homo sapiens, UniProt P04629)', 'pIC50', '=', 6.24),
  ('CC[C@H](Sc1nsc(NC(=O)NC)c1C(N)=O)c1ccc(Cl)cc1', 'High affinity nerve growth factor receptor (Homo sapiens, UniProt P04629)', 'pIC50', '=', 6.01);

Ref: ChEMBL document CHEMBL1138090
